Below, each entry is listed alongside its reported Decrease.
species on record: Rattus norvegicus; experiment: Hypolipidemic activity expressed as percentage decrease in triglyceride in rat, at dosage of 50 mg for 7 days; assay type: functional

# count of solved cases: 5
CCCCCCCCCCCCCCOc1ccc(/C=C(\C)C(=O)OCCC(=O)OC)cc1 :: 37%
CCCCCCCCCCCCCCOc1ccc(/C=C(\C)C(=O)OC(CO)CO)cc1 :: 38%
CCCCCCCCCCCCCCCCOc1ccc(/C=C/C(=O)OCC(COC(=O)CCC)OC(=O)CCC)cc1 (stereo not given) :: 36%
CCCCCCCCCCCCOc1ccc(/C=C/C(=O)OCC(O)CO)cc1 (stereo not given) :: 38%
CCCCCCCCCCCCCCCCOc1ccc(/C=C(\C)C(=O)O)cc1 :: 25%

Q: Fill in reported Decrease for this entry: CCCCCCCCCCCCCCOc1ccc(/C=C(\C)C(=O)OCC(COC(C)=O)OC(C)=O)cc1 (stereo not given)
Result: 41%

Q: Fill in reported Decrease for this entry: CCCCCCCCCCCCCCOc1ccc(/C=C(\C)C(=O)OC)cc1
Result: 44%

Q: Fill in reported Decrease for this entry: C/C(=C\c1ccc(-c2ccc(Cl)cc2)cc1)C(=O)OCC(O)CO (stereo not given)
Result: 18%

Q: Fill in reported Decrease for this entry: CCCCCCCCCCCCOc1ccc(/C=C(\C)C(=O)OCC(O)CO)cc1 (stereo not given)
Result: 53%

Q: Fill in reported Decrease for this entry: CCCCCCCCCCCCCOc1ccc(/C=C(\C)C(=O)O)cc1
Result: -4%
